test-target: T1, WD40 domain of human Cdc20 (aa 162–484), for anisotropy (human, UniProt Q12834 162-484)
T1 construct: human Cdc20, WD40 domain, aa 162-484; Cloned into pFastBac HT A; also called human Cdc20 WD40; source: Sf9, baculovirus, purified (StrepTrap)
T1 sequence (Q12834 162-484): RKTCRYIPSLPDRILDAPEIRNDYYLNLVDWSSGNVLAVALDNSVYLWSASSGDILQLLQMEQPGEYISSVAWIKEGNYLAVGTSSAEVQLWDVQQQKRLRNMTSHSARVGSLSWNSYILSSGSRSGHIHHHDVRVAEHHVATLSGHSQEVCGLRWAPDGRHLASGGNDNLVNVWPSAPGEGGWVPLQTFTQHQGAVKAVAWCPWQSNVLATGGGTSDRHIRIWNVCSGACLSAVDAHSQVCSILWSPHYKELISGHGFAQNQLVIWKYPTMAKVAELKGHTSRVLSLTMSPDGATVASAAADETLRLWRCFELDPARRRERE
experiment-description: fluorescence polarisation; fluorescence anisotropy; 10 nM C-terminally Cy5-labeled peptide mixed with increasing concentrations of purified protein (Cdh1 WD40 up to 30.6 µM); wash buffer B (50 mM Tris-HCl pH 8, 150 mM KCl, 0.5 mM EDTA, 1 mM DTT, 10% glycerol); 25 °C; one-site equilibrium fit
protocol-conditions: both partners purified
Where no end group is shown, it is not given here.
observation-type: Kd

Ask: Could you share which Kd value was measured for EQKPKRAALSDITNSFNKMNK-Cy5 [Cy5-labeled Hsl1 D box peptide] ?
Reply: ~2000 nM
